Each recorded value in this set is attributed to patent US20100022559A1.

Assay: logP determination by HPLC on a reversed-phase column (C 18), EEC Directive 79/831 Annex V.A8
Assay type: physicochemical
Settings: method marked [b] in Table 1

{"columns": ["compound", "logP"],
 "data": [
  ["Cc1cc(C)nc(/C(N)=N/OCc2cccc(CO/N=C(\\N)c3nc(C)cc(C)n3)c2)n1", "2.13^[b]"],
  ["CC(=NOCC(C)(C)CON=C(C)c1ccc(C)o1)c1ccc(C)o1", "5.00^[b]"],
  ["N/C(=N\\OCc1ccc(CO/N=C(\\N)c2ncc(F)cc2F)cc1)c1ncc(F)cc1F", "2.96^[b]"],
  ["CC(=NOCC(C)CON=C(C)c1ccc2ccc(C)cc2n1)c1ccc2ccc(C)cc2n1 (centres unmarked)", "7.36^[b]"],
  ["CCC1=NOC(CON=C(C)c2cc(C)cc(C)n2)(CON=C(C)c2cc(C)cc(C)n2)C1 (centres unmarked)", "1.88^[b]"],
  ["CC(=NOCC1(CON=C(C)c2ccc(C)c(C)n2)CC(C(C)(C)C)=NO1)c1ccc(C)c(C)n1 (centres unmarked)", "3.65^[b]"],
  ["C=C(CON=C(C)c1cccc(C)n1)CON=C(c1cccc(C)n1)C1CC1 (single isomer, unassigned) [compound 536]", "3.19^[b] (isomer A)"],
  ["CCC(=NOc1ncnc(ON=C(C)c2cccc(C)n2)c1C)c1ncccc1C", "2.18^[b]"]
]}

---

Recorded logP by entry
Experiment: logP determination by HPLC on a reversed-phase column (C 18), EEC Directive 79/831 Annex V.A8
Format: physicochemical
Details: value marked [a]
Experimental: The stated logP values were determined in accordance with EEC Directive 79/831 Annex V.A8 by HPLC (high performance liquid chromatography) on a reversed-phase column (C 18). Temperature: 43° C.
property_measured: logP

{"columns": ["compound", "val"],
 "data": [
  ["C#Cc1cc(C)nc(C(C)=NOCC(C)CON=C(C)c2cc(C#C)cc(C)n2)c1 (stereo not drawn)", "6.65^[a]"],
  ["CC(=NOC[Si](C)(CON=C(C)c1cccc(C)n1)C(C)C)c1cccc(C)n1", "6.72^[a]"],
  ["CC(=NOCC(C)CON=C(C)c1ccc2c(n1)CCCC2)c1ccc2c(n1)CCCC2 (stereo not drawn)", "4.69^[a]"],
  ["Cc1cc(C)nc(C(Cl)=NOCC(C)CON=C(Cl)c2cc(C)cc(C)n2)c1 (stereo not drawn)", "4.17^[a]"],
  ["CC(=NOCC(C)CON=C(C)c1cccc(NCC2CC2)n1)c1cccc(NCC2CC2)n1 (stereo not drawn)", "1.95^[a]"],
  ["CC(=NOC(=O)NCCCC(C)CNC(=O)ON=C(C)c1cccc(C)n1)c1cccc(C)n1 (stereo not drawn)", "2.46^[a]"],
  ["Cc1cccc(C(Cl)=NOCC(C)CON=C(Cl)c2cccc(C)n2)n1 (stereo not drawn)", "4.58^[a]"],
  ["C=C(CON=C(C)c1cccc(C)n1)CON=C(N)c1ccc(C)c(C)n1", "2.38^[a]"],
  ["CC(=NOCC(C)(C)CON=C(C)c1cc(C)cc(C)n1)c1cc(C)cc(C)n1", "2.54^[a]"],
  ["CC(=NOCC(C)CON=C(C)c1cccc(C#N)n1)c1cccc(C#N)n1 (stereo not drawn)", "4.78^[a]"],
  ["C=C(CON=C(C#N)c1cc(C)cc(C)n1)CON=C(C#N)c1cc(C)cc(C)n1", "4.50^[a]"],
  ["C=C(CON=C(C)c1cccc(C)n1)CON=C(C#N)c1ccc(C)c(C)n1", "3.74^[a]"],
  ["CC(=NOCC(C)(C)CON=C(C)c1cc(Cl)cc(C)n1)c1cc(Cl)cc(C)n1", "7.36^[a]"],
  ["CC(=NOC(=O)NCCCCNC(=O)ON=C(C)c1ccc(C)c(C)n1)c1ccc(C)c(C)n1", "2.04^[a]"],
  ["C=C(CON=C(c1cccc(C)n1)C1CC1)CON=C(c1cccc(C)n1)C1CC1 (single isomer, unassigned) [Compound 311]", "3.29^[a] (isomer B)"],
  ["C=C(CON=C(OCC)c1cccc(C)n1)CON=C(OCC)c1ccc(C)c(C)n1", "2.25^[a]"],
  ["CC(=NOC(=O)NCCCCNC(=O)ON=C(C)c1cc(C)cc(C)n1)c1cc(C)cc(C)n1", "1.63^[a]"],
  ["CC(=NOCC(C)CON=C(C)c1cc(C)n(C)n1)c1cc(C)n(C)n1 (mixture of isomers)", "3.09^[a]"],
  ["CC(=NOCC(C)CON=C(C)c1csc(C)n1)c1csc(C)n1 (stereo not drawn)", "3.52^[a]"],
  ["C=C(CON=C(Cl)c1cccc(C)n1)CON=C(Cl)c1ccc(C)c(C)n1", "4.12^[a]"],
  ["CC(=NOCC(C)(C)CON=C(C)c1csc(C)n1)c1csc(C)n1", "3.99^[a]"],
  ["CC[Si](CC)(CON=C(C)c1cccc(C)n1)CON=C(C)c1cccc(C)n1", "6.65^[a]"],
  ["C=C(CON=C(C)c1csc(C)n1)CON=C(C)c1csc(C)n1", "3.22^[a]"],
  ["CC(=NOCC(C)CON=C(C)c1ccc(C)c(C)n1)c1cc(Cl)cc(C)n1 (stereo not drawn)", "6.52^[a]"],
  ["CC(=NOCC(C)CON=C(C)c1cc(Cl)cc(C)n1)c1cc(C)cc(C)n1 (racemic)", "5,69^[a]"],
  ["C=C(CON=C(C#N)c1cccc(C)n1)CON=C(C#N)c1cccc(C)n1", "3.84^[a]"],
  ["COc1cc(C)nc(C(C)=NOCC(C)(C)CON=C(C)c2cc(OC)cc(C)n2)c1", "1.5^[a]"],
  ["Cc1cccc(C(=NOCC(C)(C)CON=C(c2cccc(C)n2)C2CC2)C2CC2)n1 (single isomer, unassigned) [compound 282]", "3.75^[a] (isomer A)"],
  ["CC=Cc1cc(C)nc(C(C)=NOCC(C)CON=C(C)c2cc(C=CC)cc(C)n2)c1 (stereo not drawn)", "4.57^[a]"],
  ["Cc1cccc(C(=NOCC(C)(C)CON=C(c2cccc(C)n2)C2CC2)C2CC2)n1 (mixture of isomers) [Compound 281]", "4.04^[a]"],
  ["CC(=NOCC(C)CON=C(C)c1cccc(C2CC2)n1)c1cccc(C2CC2)n1 (stereo not drawn)", "7.36^[a]"],
  ["CC(=NOC[Si](C)(C)CON=C(C)c1cccc(C)n1)c1cccc(C)n1", "4.50^[a]"],
  ["CC(=NOCC1(CON=C(C)c2cccc(C3CC3)n2)CC1)c1cccc(C2CC2)n1", "7.36^[a]"]
]}
